System: Caspase-4 (Homo sapiens, UniProt P49662) | Read-out: pIC50 | Origin: multiple publications
pIC50: −log10 of the molar value.
Reported Metric: pIC50

1. CC(C)C(NC(=O)C(CCC(=O)O)NC(=O)OCc1ccccc1)C(=O)NC(CC(=O)O)C(=O)CNS(=O)(=O)CCc1ccccc1 (stereo not shown) = 5.38
2. CC(NC(=O)C(NC(=O)OCc1ccccc1)C(C)C)C(=O)NC(CC(=O)O)C(=O)CON1C(=O)Cc2ccccc21 (stereo not shown) = 8.30
3. Cc1ccc(S(=O)(=O)NC(C=O)CC(=O)O)c(Oc2ccccc2)c1 (stereo not shown) = 4.85
4. Cc1cc(Oc2ccccc2S(=O)(=O)NC(C=O)CC(=O)O)ccc1C(C)C (stereo not shown) = 4.12
5. COC(=O)CC1CCCC2CC(=O)N(OCC(=O)C(CC(=O)O)NC(=O)C(C)NC(=O)C(NC(=O)OCc3ccccc3)C(C)C)C12 (stereo not shown) = 6.85
6. Cc1ccccc1Oc1ccccc1S(=O)(=O)NC(C=O)CC(=O)O (stereo not shown) = 4.23
7. O=CC(CC(=O)O)NS(=O)(=O)c1ccccc1OCCc1cccc2ccccc12 (stereo not shown) = 5.64
8. CCCC(C)C(=O)Nc1ccccc1S(=O)(=O)N[C@H](C=O)CC(=O)O (stereo partly shown) = 3.24
9. CC(=O)NC(Cc1ccc(O)cc1)C(=O)NC(CCC(=O)O)C(=O)NC(C(=O)NC(CC(=O)O)C(=O)CNS(=O)(=O)CC12CCC(CC1=O)C2(C)C)C(C)C (stereo not shown) = 6.15
10. Cc1ccccc1Oc1c(C)cccc1S(=O)(=O)NC(C=O)CC(=O)O (stereo not shown) = 4.24
11. O=C(O)CC(NC(=O)OCc1ccccc1)C(=O)CON1C(=O)Cc2ccccc21 (stereo not shown) = 7.10
12. O=CC(CC(=O)O)NS(=O)(=O)c1ccccc1OCC1CCCO1 (stereo not shown) = 2.70
13. CC(C)C(NC(=O)C(CCC(=O)O)NC(=O)OCc1ccccc1)C(=O)NC(CC(=O)O)C(=O)CNS(=O)(=O)CC12CCC(CC1=O)C2(C)C (stereo not shown) = 5.49
14. Cc1ccc(-c2ccccc2S(=O)(=O)NC(C=O)CC(=O)O)cc1 (stereo not shown) = 3.96
15. Cc1cccc(S(=O)(=O)NC(C=O)CC(=O)O)c1Oc1ccc(C(C)C)cc1 (stereo not shown) = 5.04
16. O=CC(CC(=O)O)NS(=O)(=O)c1ccccc1Oc1ccc2ccccc2c1 (stereo not shown) = 4.55

###

pIC50: −log10 of the molar value.
System: Caspase-4 (Homo sapiens, UniProt P49662) | Read-out: pIC50 | Origin: multiple publications
Tag: class 1 if measured pIC50 is not below 4, class 0 if it is.

1) CC(C)c1ccc(Oc2ccccc2S(=O)(=O)NC(C=O)CC(=O)O)cc1 (centres unmarked) = class 1
2) COC(=O)CC1CCCC2CC(=O)N(OCC(=O)[C@H](CC(=O)O)NC(=O)OCc3ccccc3)C12 (some centres unmarked) = class 1
3) O=C(O)CC(NC(=O)OCc1ccccc1)C(=O)CNS(=O)(=O)CCC1CCCCC1 (centres unmarked) = class 0
4) CC(NC(=O)C(NC(=O)OCc1ccccc1)C(C)C)C(=O)NC(CC(=O)O)C(=O)CNS(=O)(=O)CCc1ccccc1 (centres unmarked) = class 1
5) O=CC(CC(=O)O)NS(=O)(=O)c1ccccc1Nc1ccccc1 (centres unmarked) = class 0
6) CC(C)COc1ccccc1S(=O)(=O)NC(C=O)CC(=O)O (centres unmarked) = class 0
7) Cc1cccc(S(=O)(=O)NC(C=O)CC(=O)O)c1-c1ccccc1 (centres unmarked) = class 0
